Settings: parabacteroides johnsonii, 12 h, 2 µM;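 also: compound levels quantified by LC–MS at the start and at the end of incubation with the bacterium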
Description: The drug is tested on Parabacteroides johnsonii strain: DSM18315 for biotransformation. The drug concentrations were measured before and after a 12-h incubation by liquid-chromatography-coupled mass spectrometry (LC–MS)
measured_endpoint: Bacterial Biotransformation

>>> result("CC(C(=O)O)c1ccc2c(c1)Cc1cccnc1O2 (stereo not drawn)")
"Compound metabolized"
>>> result("CC[C@H](C)C(=O)O[C@H]1C[C@@H](C)C=C2C=C[C@H](C)[C@H](CC[C@@H]3C[C@@H](O)CC(=O)O3)[C@H]21")
"Compound metabolized"
>>> result("CC(=O)OCC(CCn1cnc2cnc(N)nc21)COC(C)=O")
"Compound metabolized"
>>> result("O=c1[nH]c2ccccc2n1CCCN1CCC(n2c(=O)[nH]c3cc(Cl)ccc32)CC1")
"Compound NOT metabolized"
>>> result("Cc1ccc(S(=O)(=O)NC(=O)NN2CC3CCCC3C2)cc1 (stereo not drawn) [GLICLAZIDE]")
"Compound NOT metabolized"
>>> result("CN1[C@@H]2CC[C@H]1C[C@@H](OC(=O)c1c[nH]c3ccccc13)C2")
"Compound NOT metabolized"

Supply recorded Bacterial Biotransformation for CCC1(c2ccc(N)cc2)CCC(=O)NC1=O (stereo not drawn) [AMINOGLUTETHIMIDE] here.
Compound NOT metabolized

State, in one line, measured Bacterial Biotransformation of CN(C)C(=O)Oc1cccc([N+](C)(C)C)c1.[Br-] [NEOSTIGMINE BROMIDE]
Compound NOT metabolized

Report Bacterial Biotransformation, nothing else, for this compound: C#C[C@]1(O)CC[C@H]2[C@@H]3CCC4=Cc5oncc5C[C@]4(C)[C@H]3CC[C@@]21C
Compound metabolized

Values were extracted from ChEMBL document CHEMBL5303573.
